Entries and their inhibition values follow.
SYSTEM: Hexose transporter 1 (Plasmodium falciparum)
TEST DETAILS: ST_JUDE_LEISH: Cytotoxicity at 2uM final concentration against transgenic Leishmania Mexicana promastigotes LmPfHT that are glucose transport deficient and complemented with the Plasmodium falciparum hexose transporter. Activity is measured by DNA content using SYBR green in vitro
Type: functional

| COMPOUND | UNIT OF MEASURE | inhibition |
| --- | --- | --- |
| O=[N+]([O-])c1cccc(CNC2CCN(Cc3ccc(Cl)c(Cl)c3)CC2)c1 | % | 4.47 |
| CC(CO)(CO)NCc1cc2c3ccccc3c(CNC(C)(CO)CO)cc2c2ccccc12 | % | 2.65 |
| Cc1cccc2nc(-c3ccc(-c4cccc(NC(=O)NCc5cccc(F)c5)c4)s3)[nH]c12 | % | -0.47 |
| CC1(C)CCC(C)(C)c2c1ccc(C1CCN(CCCCNC(=O)c3ccc(-c4ccc(C#N)cc4)cc3)CC1)c2OCC(N)=O | % | 4.26 |
| CCCCCCN1CCC(NCc2cccc(-n3ccnc3)c2)CC1 | % | 7.03 |
| COc1ccc(CNC(=O)C2Cc3ccccc3CN2Cc2ccc3ccccc3c2)cc1 (centres undefined) | % | 1.12 |
| COc1ccc(C2CCN(C#N)C2)cc1OC1CCCC1 (centres undefined) | % | 17.2 |
| COc1ccc(N2CCN(CCCCNCc3ccc(NC(=O)c4cc(Cl)cc(Cl)c4)cc3)CC2)c(OC)c1 | % | 2.32 |
| COC(=O)c1cccc(CNCc2cccc(-c3csc(-c4nc5ccccc5[nH]4)c3)c2)c1 | % | 8.51 |
